- Protocol details: protein stability index of a GFP-peptide fusion (GPS, HEK-293T) (PSI 1-6); higher = more stable;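 note: 24-mer peptide tiles fused after GFP, lentivirally expressed, FACS-sorted into six equal bins by GFP/DsRed ratio, decoded by Illumina sequencing, PSI is the read-weighted mean bin number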
- Condition set: treatment: MLN4924 1 uM, 8 h; c terminus: a fixed tail appended
Response key: t means protein stability index >= 4; f means protein stability index < 4.

// known answers, use as guide
Chain sequence	Cat
DTQYGSSVDIWAIGCVFAELLTGQ [CDKL4]	f
NVTELLRDVAAWGRARATGGDLEE [DNAAF3]	f
TALKKWMFLQLVPSWNGSLKQLLT [GMCL1]	f
HPVPLSFEPVKSFFKGLVEAVEST [TRIM14]	f
QYEEIALKSKAEAEALYQTKFQEL [KRT71]	t

Challenge: Exam item: decide whether the reported protein stability index for EGLLRFSSWPFSIQDVVQPLTLQV [AUP1] is at least 4.
Response given: f

Challenge: Exam item: decide whether the reported protein stability index for NKPREHIIDCGDIVWSLAFGSSVP [WSB1] is at least 4.
Response given: f

Challenge: Exam item: decide whether the reported protein stability index for LMMRGVKHHNLEGLRKRIATLFFH [IQUB] is at least 4.
Response given: f

Challenge: Exam item: decide whether the reported protein stability index for GARPLSTRVPRAAIVFTDGRAQDD [MATN2] is at least 4.
Response given: t

* * *

- Protocol details: protein stability index of a GFP-peptide fusion (GPS, HEK-293T) (PSI 1-6); higher = more stable
- Condition set: treatment: MLN4924 1 uM, 8 h; c terminus: a fixed tail appended
Response key: satisfied means protein stability index >= 5; not satisfied means protein stability index < 5.

Chain sequence	Cat
LSGVSQLLPKSRENYLNRCMDQER [FCHO1]	not satisfied
SLGYGFVNYSDPNDADKAINTLNG [ELAVL3]	not satisfied
DGVKESSESTNTTIEDEDTKVRKQ [CAMK2A]	satisfied
IVSEVQFVESSGGGSSAVGQFVSL [BRF1]	not satisfied

Challenge: Exam item: decide whether the reported protein stability index for NTHVSQVFNLFRTMGLRHLPVVNA [CLCN6] is at least 5.
Response given: not satisfied

Challenge: Exam item: decide whether the reported protein stability index for NRQSSDKQNGRVAKVKGHRSQKHK [C18orf25] is at least 5.
Response given: not satisfied

Challenge: Exam item: decide whether the reported protein stability index for HEMVAHRHRQEVLCKEMVPLAEQT [ZSCAN9] is at least 5.
Response given: not satisfied

Challenge: Exam item: decide whether the reported protein stability index for KLPSSGSGKRLSGVSSVDSAFSSR [RIPK4] is at least 5.
Response given: not satisfied

Challenge: Exam item: decide whether the reported protein stability index for LGKTNAKAVSEMRQKIWNNMPKDH [DYNC2LI1] is at least 5.
Response given: not satisfied

Challenge: Exam item: decide whether the reported protein stability index for ASAEAPGDSGERSEGEAMEICSEP [ZNF511] is at least 5.
Response given: satisfied

Challenge: Exam item: decide whether the reported protein stability index for AQRKEERWDMADNEQVLTTEHEKK [YJU2B] is at least 5.
Response given: satisfied

* * *

- Protocol details: protein stability index of a GFP-peptide fusion (GPS, HEK-293T) (PSI 1-6); higher = more stable
- Condition set: treatment: MLN4924 1 uM, 8 h; c terminus: a fixed tail appended
Measurement label: protein stability index
# print the numeric value only

Chain sequence	protein stability index
TRKHAHHCHKRRTRSCSSASSRSQ [CLK3]	4.82
DKCMVCGGDGSGCSKQSGSFRKFR [ADAMTS4]	3.25
HQLLGLFPSTSYNARLQAMWGQSL [TNXB]	2.08
AQAGGSKKAEQKKKEKIIEDKTFG [ZC3H15]	5.23
VGFIMAGTPMALIVISYIHVAAAV [OR3A1]	2.87
ILQDQEHIFAHRIYLATSSSKFYD [RHOBTB1]	2.4
FISVFSNLLESKADGIEVSYNACG [ZER1]	2.17
RDGALLGCSLTADGLPLHFFIQTV [MYORG]	2.36
EAEEEELRAELTKVEEEIVTLRQV [TPD52L2]	4.63
TVAGSLNDFSYLHTNCFELSIYVG [CPXM2]	2.55

Entry VVYSCVEGKMYTARKGKGAFCNGQ [IMPA1] , protein stability index reported as 2.36

Entry SDLSRSSRGELIPISPSTEVGGSG [MYBL2] , protein stability index reported as 4.86

Entry ATEWQKAGAPPPSGSAVSTAPQQK [SRPK2] , protein stability index reported as 5.18

Entry SKAFLLQTVDGKHQDLKYISPETM [CDC25B] , protein stability index reported as 3.37

Entry GRSSLTACSLPLCACLLGQKMLRH [PXN] , protein stability index reported as 2.19

Entry SSQDRMFETMAIEIEQLLARLTGV [GOSR1] , protein stability index reported as 2.62

Entry LIILWKNGERESGLRSLRLFQKLE [WDR41] , protein stability index reported as 2.5

* * *

protein stability index values by entry
- Protocol details: protein stability index of a GFP-peptide fusion (GPS, HEK-293T) (PSI 1-6); higher = more stable
- Condition set: treatment: DMSO; c terminus: a fixed tail appended
# print the numeric value only

Worked set:
Chain sequence	protein stability index
DVDEDEPGGLVGSADVVSPSGHSD [PPFIA4]	5.66
VTLARQAGEVVCEAIKNEMNVMLK [IMPA1]	2.44
GGAAWSIGAAPFSGRRNWCSYVVT [EMID1]	1.94
SPGSPVGEGTGSPPKWQIGEQEFE [ADD1]	5.35
ALKMTWHVHCFTCAACKTPIRNRA [PDLIM7]	2.5

Entry YVATEAILIALVGATPSYHWDLAE [SLC22A15] , protein stability index reported as 3.01

Entry QHGLVLRDLKLCRFVFADRERKKL [TRIB3] , protein stability index reported as 2.38

* * *

- Protocol details: protein stability index of a GFP-peptide fusion (GPS, HEK-293T) (PSI 1-6); higher = more stable
- Condition set: treatment: MLN4924 1 uM, 8 h; c terminus: a fixed tail appended
Measurement label: protein stability index

Worked set:
Chain sequence	Measurement label	Experimental result
YLCFLLAVLLQLYVATEAILIALV [SLC22A15]	protein stability index	2.51
MFPVAPKPQDSSQPSDRLMTEKQQ [CEP70]	protein stability index	5.24
VGVATARAPLHSVGYTALVGSDAE [SPSB4]	protein stability index	4.38
FVKDPQGRIIAVFKPKNEEPYGHL [PI4K2A]	protein stability index	2.9
MGANTSRKPPVFDENEDVNFDHFE [STK32A]	protein stability index	5.13
AHKCLECGKCFSQNTHLTRHQRTH [ZNF263]	protein stability index	5

// moving on: another record for protein stability index
Entry DARMLDHLTKKDLRVHLKMVDSFH [PPFIA4] , protein stability index reported as 2.78

* * *

- Protocol details: protein stability index of a GFP-peptide fusion (GPS, HEK-293T) (PSI 1-6); higher = more stable
- Condition set: treatment: MLN4924 1 uM, 8 h; c terminus: a fixed tail appended
Measurement label: protein stability index
# print the numeric value only

Entry VWAHNLIAIARLRGSDLKVLEVTE [FBXO33] , protein stability index reported as 2.95

Entry QVLSAKERHLVEIKQKLGMNLMNE [TPD52L1] , protein stability index reported as 3.04

Entry DQVMEFSWSALWNITDETPDNCEM [ZER1] , protein stability index reported as 4.04

Entry RSVRRERLKEMKLLRDQFVKALED [FAM9B] , protein stability index reported as 3.05

* * *

- Protocol details: protein stability index of a GFP-peptide fusion (GPS, HEK-293T) (PSI 1-6); higher = more stable
- Condition set: treatment: MLN4924 1 uM, 8 h; c terminus: a fixed tail appended
protein stability index values by entry

Chain sequence	protein stability index
QRLEEETRKREDAEHNLVLFRKDV [PRPH]	5.13
DHLTTVLYLQLAICSSLQNLEKTI [C8orf76]	3.41
SWVTDMCKVGASSDPCGQLRPTLL [PNLIPRP1]	2.34
SSGKVLPKWGWEQLEVTCTPYLKE [POMT2]	2.67
PERRRSPGPAPGSPGELEEDLLLP [WEE1]	5.37
GTDLPLSEIPRGVRVALDYEAGQV [TRIM15]	4.46
KSHLIFPQPNYADTLISQESCEKN [PCDHGA10]	4.32
FSGTPPPPVLSFRLVHTTAIEHFQ [FCHO1]	2.28

Entry KKWGINTYKCTKQLLSERFGRGSR [ARFIP2] , protein stability index reported as 2.86

Entry QCDHCERCFYTRKDVRRHLVVHTG [PLAGL1] , protein stability index reported as 3.19

* * *

- Protocol details: protein stability index of a GFP-peptide fusion (GPS, HEK-293T) (PSI 1-6); higher = more stable
- Condition set: treatment: DMSO; c terminus: a fixed tail appended
Grouping key: protein stability index. Bins: group 1 (below 3), group 2 (3 to below 4), group 3 (4 or more)

// known answers, use as guide
Chain sequence	Cat
SAMLLVTLGKVLKVIVVMRSLFID [MED27]	group 1
LFQFSNCSQGQQLATFSSDWEIQE [CCDC3]	group 2
LMFFIMAAMLSMVKYNSCADRPFS [POMT2]	group 2
EEEKEPLAVDSWWLDPGHTAVAQA [SERTAD1]	group 3
HVFSELWDLSEAWMQANYDPLSDS [ELOA2]	group 1
ESLREELICLKKNHEEEVNTLRSQ [KRT34]	group 3

Challenge: Looking at SEPHYGHAGTVYGGVMYISGGITH [KLHL13] , which class would you pick?
Response given: group 1

Challenge: Looking at DNDPRDLIGDFSKGYLFHTVAGKH [CDC25A] , which class would you pick?
Response given: group 2

Challenge: Looking at AKNFHVKAVMKTSVLLSWEIPENY [PTPRD] , which class would you pick?
Response given: group 1

Challenge: Looking at QHIDNITQIEDATEKLKANAESSK [TRIM14] , which class would you pick?
Response given: group 3

Hello, the source for this data is the supplement of paper PMC10567573, in case you need it.
